# tgt: A/duck/Cambodia/CMB07.72/2007 neuraminidase (Influenza A virus)

compound | IC50 / nM
CCOC(=O)C1=C[C@@H](OC(CC)CC)[C@H](NC(C)=O)[C@@H](N)C1 [Oseltamivir, oseltamivir] | 0.65

###

# tgt: A/chicken/Suphanburi/2509/2004 neuraminidase (Influenza A virus (H5N1))

compound_smiles | IC50, nM
CCOC(=O)C1=C[C@@H](OC(CC)CC)[C@H](NC(C)=O)[C@@H](N)C1 | 0.61

###

# tgt: clade 1.1 HPAI H5N1 isolates from Thailand (neuraminidase) (Influenza A virus, UniProt Q5SDA6)
# assay_setup: read-out: IC50, Mean (SD)
pIC50: −log10 of the molar value.
experimental_readout: pIC50

compound_smiles | value_observed
CCOC(=O)C1=C[C@@H](OC(CC)CC)[C@H](NC(C)=O)[C@@H](N)C1 | 9.01

###

# tgt: A/chicken/Vietnam/08/2004 neuraminidase (clade 1.1 wild type) (Influenza A virus (H5N1))
# Assay type: biochemical, HPAI H5N1 avian influenza virus
# assay_setup: read-out: 60 min IC50, Preincubation step (−)
pIC50: −log10 of the molar value.

compound_smiles | tgt | pIC50
CCC(CC)[C@H](NC(C)=O)[C@@H]1[C@H](O)[C@@H](C(=O)O)C[C@H]1N=C(N)N | A/chicken/Vietnam/08/2004 neuraminidase (clade 1.1 wild type) (Influenza A virus (H5N1)) | 8.21

###

# tgt: A/chicken/Saraburi/10713/2005 neuraminidase (Influenza A virus (A/chicken/Saraburi/10713/2005(H5N1)))

compound_smiles | unit_name | IC50
CCOC(=O)C1=C[C@@H](OC(CC)CC)[C@H](NC(C)=O)[C@@H](N)C1 | nM | 0.68

###

# tgt: clade 2.1 HPAI H5N1 isolates from Indonesia (neuraminidase) (Influenza A virus, UniProt F5HQR3)
# Format: biochemical, HPAI H5N1 avian influenza virus
# assay_setup: read-out: Mean and median IC50
pIC50: −log10 of the molar value.

compound_smiles | pIC50
CCOC(=O)C1=C[C@@H](OC(CC)CC)[C@H](NC(C)=O)[C@@H](N)C1 | ~7.60

###

# tgt: A/chicken/Bangli/BBVD-563/2007 neuraminidase (clade 2.1 wild type) (Influenza A virus, UniProt F1SW80)
# Assay type: biochemical, HPAI H5N1 avian influenza virus
# assay_setup: read-out: 60 min IC50, Preincubation step (+)
The entries below are paired with their reported IC50.
experimental_readout: IC50 (nM)

compound_smiles | value_observed
CCC(CC)[C@H](NC(C)=O)[C@@H]1[C@H](O)[C@@H](C(=O)O)C[C@H]1N=C(N)N | 0.6
CCOC(=O)C1=C[C@@H](OC(CC)CC)[C@H](NC(C)=O)[C@@H](N)C1 | 19.6

###

# tgt: A/chicken/Cambodia/CMB07.71LC2/2007 neuraminidase (Influenza A virus)
pIC50: −log10 of the molar value.

compound | tgt | pIC50
CCOC(=O)C1=C[C@@H](OC(CC)CC)[C@H](NC(C)=O)[C@@H](N)C1 [Oseltamivir, oseltamivir] | A/chicken/Cambodia/CMB07.71LC2/2007 neuraminidase (Influenza A virus) | 9.11

###

# tgt: A/chicken/Vietnam/08/2004 neuraminidase (clade 1.1 wild type) (Influenza A virus (H5N1), UniProt Q6DPL2)
# Assay type: biochemical, HPAI H5N1 avian influenza virus
# assay_setup: read-out: 60 min IC50, Preincubation step (+)
pIC50: −log10 of the molar value.
experimental_readout: pIC50

compound | experimental_readout | value_observed
CCC(CC)[C@H](NC(C)=O)[C@@H]1[C@H](O)[C@@H](C(=O)O)C[C@H]1N=C(N)N [Peramivir, peramivir] | pIC50 | 9.15
